test system: ACHN (Kidney Carcinoma); experiment: Bliss excess, mean over the matrix (fraction); higher = more synergy
Kindly supply the reported Bliss excess values for the records listed here.
One number for each entry.

COMPOUND	EXPERIMENTAL TARGET	Bliss excess
COc1nnc2ccc(N3CCC(c4ccc(OCCN5CCN(C)C(=O)[C@H]5C)cc4)CC3)nn12 [AZD5153] + C=CCn1c(=O)c2cnc(Nc3ccc(N4CCN(C)CC4)cc3)nc2n1-c1cccc(C(C)(C)O)n1 [AZD1775] (first compound max 1 µM, partner max 1 µM)	ACHN (Kidney Carcinoma)	-0.0396

We next turn to a different compound, shown below.
Input: Which measured Bliss excess value corresponds to Cc1c2c(nn1C)CSCc1cc(n(C)n1)CSc1cc(c3ccccc3c1)OCCCc1c(C(=O)O)n(C)c3c-2c(Cl)ccc13 [AZD5991] + C1CN(CCC1(C(=O)N[C@@H](CCO)C2=CC=C(C=C2)Cl)N)C3=NC=NC4=C3C=CN4 [Capivasertib] (first compound max 1 µM, 7x7, partner max 3 µM) ?
Output: 0.0107

----------
Kindly supply the reported Bliss excess values for the records listed here.
tested on: RF-48 (B-Cell Non-Hodgkin's Lymphoma); assay: Bliss excess, mean over the matrix (fraction); higher = more synergy

Illustrative cases are given below, each with its answer.
COMPOUND	Bliss excess
Cc1cc2ncnn2cc1Nc1ncc2c(n1)n(C1CCOCC1)c(=O)n2C [AZD7648] + O=C(c1cc(Cc2n[nH]c(=O)c3ccccc23)ccc1F)N1CCN(C(=O)C2CC2)CC1 [Olaparib] (first compound max 10 µM, 7x7, partner max 10 µM)	0.0158
Cc1c2c(nn1C)CSCc1cc(n(C)n1)CSc1cc(c3ccccc3c1)OCCCc1c(C(=O)O)n(C)c3c-2c(Cl)ccc13 [AZD5991] + Cn1cnc2c(F)c(Nc3ccc(Br)cc3Cl)c(C(=O)NOCCO)cc21 [Selumetinib] (first compound max 1 µM, 7x7, partner max 3 µM)	-0.0095
CS(=O)(=O)CCNCc1ccc(-c2ccc3ncnc(Nc4ccc(OCc5cccc(F)c5)c(Cl)c4)c3c2)o1 [Lapatinib] + NC1(c2ccc(-c3nc4ccn5c(=O)[nH]nc5c4cc3-c3ccccc3)cc2)CCC1 [MK-2206] (first compound max 10 µM, 7x7, partner max 10 µM)	0.0003
C=CCn1c(=O)c2cnc(Nc3ccc(N4CCN(C)CC4)cc3)nc2n1-c1cccc(C(C)(C)O)n1 [AZD1775] + C[C@@H]1COCCN1C2=NC(=NC(=C2)C3(CC3)[S@](=N)(=O)C)C4=C5C=CNC5=NC=C4 [AZD6738] (first compound max 1 µM, partner max 10 µM)	-0.0098
C[C@@H](Nc1cc(F)cc(F)c1)c1cc(C(=O)N(C)C)cc2c(=O)cc(N3CCOCC3)oc12 [AZD8186] + C1CN(CCC1(C(=O)N[C@@H](CCO)C2=CC=C(C=C2)Cl)N)C3=NC=NC4=C3C=CN4 [AZD5363] (first compound max 10 µM, 7x7, partner max 10 µM)	-0.033
CCc1c2c(nc3ccc(O)cc13)-c1cc3c(c(=O)n1C2)COC(=O)[C@]3(O)CC [SN-38] + CN(C)CCCOc1ccc(-c2ccc3ncc4c(c3c2)n(C2CCOCC2)c(=O)n4C)cn1 [AZD0156] (first compound max 0.3 µM, 7x7, partner max 1 µM)	-0.0098

Input: Which measured Bliss excess value corresponds to CN(CCO)CC[C@H](CSc1ccccc1)Nc1ccc(S(=O)(=O)NC(=O)c2ccc(N3CCC([C@@H](O)c4ccccc4-c4ccc(Cl)cc4)CC3)cc2)cc1S(=O)(=O)C(F)(F)F [AZD4320] + Cc1cc2ncnn2cc1Nc1ncc2c(n1)n(C1CCOCC1)c(=O)n2C [AZD7648] (first compound max 1 µM, 7x7, partner max 10 µM) ?
Output: -0.0205

----------
test system: UACC-62 (Melanoma); assay: Bliss excess, mean over the matrix (fraction); higher = more synergy
Kindly supply the reported Bliss excess values for the records listed here.
Answers are plain numbers.

COMPOUND	EXPERIMENTAL TARGET	Bliss excess
CC1(C)CCC(CN2CCN(c3ccc(C(=O)NS(=O)(=O)c4ccc(NCC5CCOCC5)c([N+](=O)[O-])c4)c(Oc4cnc5[nH]ccc5c4)c3)CC2)=C(c2ccc(Cl)cc2)C1 [Venetoclax] + CN(C)CCCOc1ccc(-c2ccc3ncc4c(c3c2)n(C2CCOCC2)c(=O)n4C)cn1 [AZD0156] (first compound max 1 µM, 7x7, partner max 1 µM)	UACC-62 (Melanoma)	0.0254

Input: Which measured Bliss excess value corresponds to Cn1cnc2c(F)c(Nc3ccc(Br)cc3Cl)c(C(=O)NOCCO)cc21 [Selumetinib] + CCN(CCO)CCCOc1ccc2c(Nc3cc(CC(=O)Nc4cccc(F)c4)[nH]n3)ncnc2c1 [AZD2811] (first compound max 10 µM, 7x7, partner max 1 µM) ?
Output: -0.0289

----------
tested on: RF-48 (B-Cell Non-Hodgkin's Lymphoma); assay: combination Emax (second highest fraction inhibited in the dose matrix, 72 h); higher = more inhibition; extreme values may be limits of the assay
ENDPOINT: combination Emax
Give bare numbers.

MOLECULE	RECORDED MEASUREMENT
C[C@@H](Nc1cc(F)cc(F)c1)c1cc(C(=O)N(C)C)cc2c(=O)cc(N3CCOCC3)oc12 [AZD8186] + CC(=O)c1c(C)c2cnc(Nc3ccc(N4CCNCC4)cn3)nc2n(C2CCCC2)c1=O [Palbociclib] (first compound max 10 µM, 7x7, partner max 10 µM)	0.4
CC1(C)CCC(CN2CCN(c3ccc(C(=O)NS(=O)(=O)c4ccc(NCC5CCOCC5)c([N+](=O)[O-])c4)c(Oc4cnc5[nH]ccc5c4)c3)CC2)=C(c2ccc(Cl)cc2)C1 [Venetoclax] + Cn1cnc2c(F)c(Nc3ccc(Br)cc3Cl)c(C(=O)NOCCO)cc21 [Selumetinib] (first compound max 1 µM, 7x7, partner max 3 µM)	0.286
Cc1c2c(nn1C)CSCc1cc(n(C)n1)CSc1cc(c3ccccc3c1)OCCCc1c(C(=O)O)n(C)c3c-2c(Cl)ccc13 [AZD5991] + Cn1cnc2c(F)c(Nc3ccc(Br)cc3Cl)c(C(=O)NOCCO)cc21 [Selumetinib] (first compound max 1 µM, 7x7, partner max 3 µM)	0.21

Input: Which measured combination Emax value corresponds to C[C@@H](Oc1cc(-c2cnn(C3CCNCC3)c2)cnc1N)c1c(Cl)ccc(F)c1Cl [Crizotinib] + Cn1cnc2c(F)c(Nc3ccc(Br)cc3Cl)c(C(=O)NOCCO)cc21 [Selumetinib] (first compound max 10 µM, 7x7, partner max 10 µM) ?
Output: 0.306

----------
tested on: MIA-PaCa-2 (Pancreatic Carcinoma); experiment: combination Emax (second highest fraction inhibited in the dose matrix, 72 h); higher = more inhibition; extreme values may be limits of the assay
ENDPOINT: combination Emax
One number for each entry.

COMPOUND	combination Emax
O=C(c1cc(Cc2n[nH]c(=O)c3ccccc23)ccc1F)N1CCN(C(=O)C2CC2)CC1 [Olaparib] + CC1(C)CCC(CN2CCN(c3ccc(C(=O)NS(=O)(=O)c4ccc(NCC5CCOCC5)c([N+](=O)[O-])c4)c(Oc4cnc5[nH]ccc5c4)c3)CC2)=C(c2ccc(Cl)cc2)C1 [Venetoclax] (first compound max 10 µM, 7x7, partner max 1 µM)	0.209

We next turn to a different compound, shown below.
Input: Which measured combination Emax value corresponds to CN(CCO)CC[C@H](CSc1ccccc1)Nc1ccc(S(=O)(=O)NC(=O)c2ccc(N3CCC([C@@H](O)c4ccccc4-c4ccc(Cl)cc4)CC3)cc2)cc1S(=O)(=O)C(F)(F)F [AZD4320] + C1CN(CCC1(C(=O)N[C@@H](CCO)C2=CC=C(C=C2)Cl)N)C3=NC=NC4=C3C=CN4 [Capivasertib] (first compound max 1 µM, 7x7, partner max 3 µM) ?
Output: 0.133

----------
test system: TK10 (Kidney Carcinoma); test: Bliss excess, mean over the matrix (fraction); higher = more synergy
ENDPOINT: Bliss excess
One number for each entry.

COMPOUND	Bliss excess
Cc1c2c(nn1C)CSCc1cc(n(C)n1)CSc1cc(c3ccccc3c1)OCCCc1c(C(=O)O)n(C)c3c-2c(Cl)ccc13 [AZD5991] + CS(=O)(=O)CCNCc1ccc(-c2ccc3ncnc(Nc4ccc(OCc5cccc(F)c5)c(Cl)c4)c3c2)o1 [Lapatinib] (first compound max 1 µM, 7x7, partner max 10 µM)	-0.0567
COc1nnc2ccc(N3CCC(c4ccc(OCCN5CCN(C)C(=O)[C@H]5C)cc4)CC3)nn12 [AZD5153] + CC1(C)CCC(CN2CCN(c3ccc(C(=O)NS(=O)(=O)c4ccc(NCC5CCOCC5)c([N+](=O)[O-])c4)c(Oc4cnc5[nH]ccc5c4)c3)CC2)=C(c2ccc(Cl)cc2)C1 [Venetoclax] (first compound max 1 µM, 7x7, partner max 1 µM)	-0.0549
O=C(c1cc(Cc2n[nH]c(=O)c3ccccc23)ccc1F)N1CCN(C(=O)C2CC2)CC1 [Olaparib] + CN(CC[C@H](CSC1=CC=CC=C1)NC2=C(C=C(C=C2)S(=O)(=O)NC(=O)C3=CC=C(C=C3)N4CCC(CC4)[C@H](C5=CC=CC=C5C6=CC=C(C=C6)Cl)O)S(=O)(=O)C(F)(F)F)CCO [AZD4320] (first compound max 10 µM, 7x7, partner max 1 µM)	-0.0439
CN(CCO)CC[C@H](CSc1ccccc1)Nc1ccc(S(=O)(=O)NC(=O)c2ccc(N3CCC([C@@H](O)c4ccccc4-c4ccc(Cl)cc4)CC3)cc2)cc1S(=O)(=O)C(F)(F)F [AZD4320] + CN(C)CCCOc1ccc(-c2ccc3ncc4c(c3c2)n(C2CCOCC2)c(=O)n4C)cn1 [AZD0156] (first compound max 1 µM, 7x7, partner max 1 µM)	-0.0373
CN(C)CCCOc1ccc(-c2ccc3ncc4c(c3c2)n(C2CCOCC2)c(=O)n4C)cn1 [AZD0156] + O=C(c1cc(Cc2n[nH]c(=O)c3ccccc23)ccc1F)N1CCN(C(=O)C2CC2)CC1 [Olaparib] (first compound max 3 µM, partner max 3 µM)	-0.0279
Cc1cc2ncnn2cc1Nc1ncc2c(n1)n(C1CCOCC1)c(=O)n2C [AZD7648] + C[C@@H]1COCCN1C2=NC(=NC(=C2)C3(CC3)[S@](=N)(=O)C)C4=C5C=CNC5=NC=C4 [AZD6738] (first compound max 10 µM, 7x7, partner max 10 µM)	0.0062

Input: Which measured Bliss excess value corresponds to NC1(C(=O)N[C@@H](CCO)c2ccc(Cl)cc2)CCN(c2ncnc3[nH]ccc23)CC1 [Capivasertib] + C[C@@H]1COCCN1C2=NC(=NC(=C2)C3(CC3)[S@](=N)(=O)C)C4=C5C=CNC5=NC=C4 [AZD6738] (first compound max 10 µM, 7x7, partner max 10 µM) ?
Output: -0.0604
